- Test system: lymphocyte proliferation in the human MLR
- Type: cell-based
- test settings: peptide 12.5 to 100 μM; assays of 1/24, 1/31, 3/6, 4/17, 5/2; one symbol per assay
Bridge positions count the residues as written; N and C are the ends. Ends that are not written are not given here.
measure: Human MLR (ability to inhibit lymphocyte proliferation, cpm)

HVEQPA [AT 137.1]    −, +
KYLVKQS-OH [AT 122.1]    −, −
CKIEVMYPPPYLC (disulfide 1-13 (inferred)) [AT 114.1]    Toxic
HVEQPA-OH [AT 125.1]    −, −
CRQADSQVTEC (disulfide 1-11 (inferred)) [AT 128.1]    ++, −

Which Human MLR (ability to inhibit lymphocyte proliferation, cpm) value is on record for KYLVKQS [AT 120.1] ?
−, +/−

// query Human MLR (ability to inhibit lymphocyte proliferation, cpm) value for entry RKCLAYPPPYYCHH (not fully specified (bridges); cysteine pairing not given here) [AT 200.1]
−, −, −

# get_value(readout='Human MLR (ability to inhibit lymphocyte proliferation, cpm)', item= CSPNQC (disulfide 1-6 (inferred)) [AT 135.1] )
+/−, −

Query (substance): ADSQVTEV [AT 127.1] ; field requested: Human MLR (ability to inhibit lymphocyte proliferation, cpm)
−, −

Fill in: Human MLR (ability to inhibit lymphocyte proliferation, cpm) of KILVKQS [AT 119.1] is ___
−, +/−
